- system: UniProt P43490
- Sequence (P43490 whole entry): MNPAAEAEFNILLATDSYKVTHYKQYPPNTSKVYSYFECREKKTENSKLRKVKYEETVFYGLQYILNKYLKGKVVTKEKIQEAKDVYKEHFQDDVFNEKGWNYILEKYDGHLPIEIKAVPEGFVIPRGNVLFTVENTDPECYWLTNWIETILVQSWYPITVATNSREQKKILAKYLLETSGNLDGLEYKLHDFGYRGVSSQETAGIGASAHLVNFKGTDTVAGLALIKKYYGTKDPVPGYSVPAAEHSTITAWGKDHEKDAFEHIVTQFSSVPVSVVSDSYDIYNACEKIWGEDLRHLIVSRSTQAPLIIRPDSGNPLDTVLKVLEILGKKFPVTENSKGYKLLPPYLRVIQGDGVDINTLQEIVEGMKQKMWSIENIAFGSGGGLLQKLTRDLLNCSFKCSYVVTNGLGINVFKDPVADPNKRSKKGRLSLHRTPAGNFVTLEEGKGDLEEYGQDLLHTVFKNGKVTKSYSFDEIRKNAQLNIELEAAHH
pIC50: −log10 of the molar value.
parameter measured: pIC50

>  <smiles repr>
CCCn1c(=O)c(-c2ccc(C(=O)NCc3cccnc3)cc2)nc2ccccc21

>  <system>
UniProt P43490

>  <value observed>
7.24

$$$$

----------
- protocol notes: AUC (0 to infinity) in Sprague-Dawley rat at 30 mg/kg, ip measured upto 24 hrs by LC-MS/MS analysis
- Assay type: ADME, organism-based
- Design: time < 24 hrs, dose 30 mg/kg, route ip
- condition notes: in vivo
parameter measured: AUC(0-inf) (µg·h/mL)

>  <smiles repr>
CCCn1c(=O)c(-c2ccc(C(=O)NCc3cccnc3)cc2)nc2ccc(NC(=O)CCCCCCCCCCC(=O)N[C@H](C(=O)N3C[C@H](O)C[C@H]3C(=O)N[C@@H](C)c3ccc(-c4scnc4C)cc3)C(C)(C)C)cc21

>  <parameter measured>
AUC(0-inf)

>  <value observed>
1.11

$$$$
